- Tested on: CCRIS mutagenicity, Ames/micronucleus/aberration tests
- ASSAY: CCRIS mutagenicity studies
- CONDITION INFO: Test System: AMES SALMONELLA TYPHIMURIUM; Strain/Indicator: TA98; Metabolic Activation: NONE; Method: PREINCUBATION
Activity calls are given as the source filed them. How the calls were made is not given here.
Hi there, use one of these labels in your reply, thanks! 1 = active, 0 = inactive

Kindly provide the recorded test outcome for the following molecule: "Nc1ccc(N=Nc2ccccc2)cc1" 0

Kindly provide the recorded test outcome for the following molecule: "O=C(O)c1ccccc1O" 0

Kindly provide the recorded test outcome for the following molecule: "CC(=O)N(O)c1ccc(-c2ccccc2)cc1" 0

Kindly provide the recorded test outcome for the following molecule: "CCCNC(=O)C=Cc1ccc([N+](=O)[O-])o1" 1

Kindly provide the recorded test outcome for the following molecule: "Cc1ccccc1S(N)(=O)=O" 0

Kindly provide the recorded test outcome for the following molecule: "O=[N+]([O-])c1ccccc1S(=O)(=O)O" 0

Kindly provide the recorded test outcome for the following molecule: "CC(C)COC(=O)c1ccccc1N" 0

Kindly provide the recorded test outcome for the following molecule: "Cc1ccc(Cl)cc1" 0

Kindly provide the recorded test outcome for the following molecule: "Nc1ccc(NCCO)c([N+](=O)[O-])c1" 1

Kindly provide the recorded test outcome for the following molecule: "CC[C@H]1CN2CCc3cc(OC)c(OC)cc3[C@@H]2C[C@@H]1C[C@H]1NCCc2cc(OC)c(OC)cc21" 0

Kindly provide the recorded test outcome for the following molecule: "CNc1ccc2nc(C)cnc2c1C" 0

Kindly provide the recorded test outcome for the following molecule: "C=CCNC(N)=O" 0

Kindly provide the recorded test outcome for the following molecule: "[B-]" 0

Kindly provide the recorded test outcome for the following molecule: "Nc1cccc([N+](=O)[O-])c1N" 1

Kindly provide the recorded test outcome for the following molecule: "CCCCOCCCC" 0
